B1: F1*; the commonest letter at each place (parent)
chain: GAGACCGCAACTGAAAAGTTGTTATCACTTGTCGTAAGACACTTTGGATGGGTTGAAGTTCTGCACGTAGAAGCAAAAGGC

- Variants of: B1
- Test Protocol: fraction ligated after 30 min (ligated reads / total reads); higher = more ligase activity
- Assay Conditions: with F1*sub RNA substrate (template-directed ligation), 42 °C
Parameter: fraction ligated
Form field (numeric): enter value without unit.

Example results:
• T49A A57C = 0.629
• A41G G50A = 0.23
• T25A T43G = 0.624
• C26G A48T = 0.00571
• T29G T45C = 0.677
• G55C A56C A57C = 0.0245

Reported fraction ligated for T23A C40G was 0.838

Reported fraction ligated for G50T A57C was 0.172

Reported fraction ligated for T32C G38A was 0.794

Reported fraction ligated for T32A C33G was 0.823

Reported fraction ligated for "A48G" was 0.794

Reported fraction ligated for G47A G55A was 0.775

Reported fraction ligated for T25C G31C was 0.53

Reported fraction ligated for A27T G38T was 0.799

Reported fraction ligated for G55A A56G A57G was 0.338

Reported fraction ligated for A36G A39C was 0.791

Reported fraction ligated for A36G G50T was 0.751

Reported fraction ligated for C28A A56G was 0.681
